Data origin, for the record: patent US20260167721A1

molecular target: T1, recombinant human CD3 epsilon/gamma heterodimer (human, UniProt P07766 23-126; P09693 23-116); experiment: BLI (Octet), mAb 5 ug/mL on FAB2G sensor, hCD3 E/G 200-50 nM;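 further: antibodies purified from hybridoma supernatants, measured by Octet binding to recombinant human CD3 protein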
T1 construct: Recombinant heterodimer used as analyte in Octet; also called hCD3 E/G
T1 sequence (P07766 23-126, chain 1 of 2): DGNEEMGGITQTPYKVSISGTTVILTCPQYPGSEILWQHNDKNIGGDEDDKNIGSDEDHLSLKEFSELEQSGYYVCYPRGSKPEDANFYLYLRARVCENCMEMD
T1 sequence (P09693 23-116, chain 2 of 2): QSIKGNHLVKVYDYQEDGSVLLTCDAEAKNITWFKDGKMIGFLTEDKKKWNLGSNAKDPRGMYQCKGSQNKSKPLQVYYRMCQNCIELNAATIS
endpoint: Response

>  <binder>
ABL-CD3-64 (antibody, V domains shown, mAb purified from hybridoma; chimeric AlivaMab IgG (human VH, CH1 and upper hinge; mouse middle hinge, CH2, CH3; human light chain)) VH: EVQVAESGGGLVKPGGSLRLSCAASGFTFSRYSMNWVRQAPGKGLEWVSSISSSGSYTYYADSVKGRFTISRDNAKNSLYLQMNSLRAEDTAVYYCVRERGKGAGMDVWGQGTTVTVSS VL: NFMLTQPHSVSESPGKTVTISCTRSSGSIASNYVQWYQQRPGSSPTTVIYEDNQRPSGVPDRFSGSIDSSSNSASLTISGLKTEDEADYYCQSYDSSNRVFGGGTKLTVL

>  <valueReported>
0.46

$$$$
>  <binder>
ABL-CD3-83 (antibody, V domains shown, mAb purified from hybridoma; chimeric AlivaMab IgG (human VH, CH1 and upper hinge; mouse middle hinge, CH2, CH3; human light chain)) VH: EVQLVESGGGLVKPGGSLRLSCAASGFTFSSYSMNWVRQAPGKGLEWVSTISRSGGYIYDADSVKGRFTISRDNAKNSLYLQMNSLRAEDTAVYYCARDFNWTFDNWGQGTLVTVSS VL: NFMLTQPHSVSESPGKTVTISCTRSSGSIASNYVQWYQQRPGSSPTTVIYEDNQRPSGVPDRFSGSIDSSSNSASLTISGLKTEDEADYYCQSSDRSNVVFGGGTKLTVL

>  <valueReported>
0.01

$$$$
>  <binder>
ABL-CD3-67 (antibody, V domains shown, mAb purified from hybridoma; chimeric AlivaMab IgG (human VH, CH1 and upper hinge; mouse middle hinge, CH2, CH3; human light chain)) VH: EVQLVESGGGLVKPGGSLRLSCAASGFTVSSYSMNWVRQAPGKGLEWVSSISRSSSYIYYADSVKGRFTISRDNAKNSLFLQMNSLRAEDTAVYYCARERWELLYFDYWGQGTLVTVSS VL: NFMLTQPHSVSESPGKTVTISCTRSSGSIASNYVQWYRQRPGSSPTTVIYEDNQRPSGVPDRFSGAIDSSSTSASLTISGLKTEDEADYYCQSYDSSNRVFGGGTKLTVL

>  <valueReported>
0.26

$$$$
